- Method Summary: xn = mol fraction of the nth substance listed
- Measurement Conditions: 288.15 K; 100.5 kPa; Liquid; x1 = 0.95
Rule: viscosity of 1 mPa·s or more gives YES; anything lower gives NO.

Known results for compounds:
{"columns": ["Compound", "Cat"],
 "data": [
  ["CCCCCC(=O)OCC [ethyl hexanoate] + CCO", "YES"],
  ["CCCC(=O)OCCC(C)C [3-methylbutyl butanoate] + CCO", "YES"]
]}

Test whether the compound CC(=O)OCCC(C)C [3-methylbutyl ethanoate] + CCO records viscosity of 1 mPa·s or higher.
NO

Reported viscosity reaches at least 1 mPa·s for CCOC(=O)Cc1ccccc1 [ethyl phenylacetate] + CCO ?
YES

Is it the case that CCOC(=O)c1ccccc1 [ethyl benzoate] + CCO has viscosity reaching or exceeding 1 mPa·s?
YES

Check the entry CCCCCCCC(=O)OCC [ethyl octanoate] + CCO : does viscosity equal or exceed 1 mPa·s?
YES

====

- Measurement Conditions: 298.15 K; 101 kPa; Liquid
Assay Readout: mass density (kg/m3)
Give bare numbers, in kg/m3.

Study these solved cases before continuing.
{"columns": ["Compound", "Assay Readout", "Experimental Value"],
 "data": [
  ["CCCCCCCC(=O)OCC [ethyl octanoate]", "mass density", 862.15],
  ["CCOC(=O)c1ccccc1 [ethyl benzoate]", "mass density", 1041.42],
  ["CCO", "mass density", 785],
  ["CCCCCC(=O)OCC [ethyl hexanoate]", "mass density", 866.29]
]}

Below are 2 compounds. Give each one its mass density.
1. CCCC(=O)OCCC(C)C [3-methylbutyl butanoate]
2. CCOC(=O)Cc1ccccc1 [ethyl phenylacetate]

1. 858.69
2. 1026.96

====

- Method Summary: xn = mol fraction of the nth substance listed
- Measurement Conditions: 288.15 K; 101 kPa; Liquid; x1 = 0.5
Assay Readout: mass density (kg/m3)
Numbers only, in kg/m3.

Worked examples, 4 molecules total:
{"columns": ["Molecule", "Uom", "mass density"],
 "data": [
  ["CCCCCC(=O)OCC [ethyl hexanoate] + CCO", "kg/m3", 853.47],
  ["CCOC(=O)c1ccccc1 [ethyl benzoate] + CCO", "kg/m3", 978.51],
  ["CCOC(=O)Cc1ccccc1 [ethyl phenylacetate] + CCO", "kg/m3", 972.79],
  ["CCCC(=O)OCCC(C)C [3-methylbutyl butanoate] + CCO", "kg/m3", 849.03]
]}

Which mass density is reported for this molecule? CCCCCCCC(=O)OCC [ethyl octanoate] + CCO
852.45

====

- Method Summary: xn = mol fraction of the nth substance listed
- Measurement Conditions: 308.15 K; 101 kPa; Liquid; x1 = 0.5
Would you mind telling me the reported mass density of each entry?
One number for each entry, in kg/m3.

Please state mass density for every molecule in the list that follows.
1. CCCC(=O)OCCC(C)C [3-methylbutyl butanoate] + CCO
2. CCCCCC(=O)OCC [ethyl hexanoate] + CCO

[830.66, 834.63]

# per-item lookup of mass density; items listed below
1. CCOC(=O)c1ccccc1 [ethyl benzoate] + CCO
2. CCCCCCCC(=O)OCC [ethyl octanoate] + CCO
3. CCOC(=O)Cc1ccccc1 [ethyl phenylacetate] + CCO

959.57
834.72
953.86

====

- Method Summary: xn = mol fraction of the nth substance listed
- Measurement Conditions: 298.15 K; 100.5 kPa; Liquid; x1 = 0.6
Criterion: viscosity strictly under 1 mPa·s. Met: MET. Not met: NOT MET.

{"columns": ["Molecule", "Cat"],
 "data": [
  ["CCCCCC(=O)OCC [ethyl hexanoate] + CCO", "MET"],
  ["CCCCCCCC(=O)OCC [ethyl octanoate] + CCO", "NOT MET"],
  ["CCOC(=O)c1ccccc1 [ethyl benzoate] + CCO", "NOT MET"],
  ["CCOC(=O)Cc1ccccc1 [ethyl phenylacetate] + CCO", "NOT MET"]
]}

Regarding CC(=O)OCCC(C)C [3-methylbutyl ethanoate] + CCO , kindly confirm whether its viscosity is beneath 1 mPa·s.
MET

====

- Method Summary: xn = mol fraction of the nth substance listed
- Measurement Conditions: 288.15 K; 100.5 kPa; Liquid; x1 = 0.15
Consider the following molecules; for each one, report its viscosity.
Answers are plain numbers, in mPa·s.

Study these solved cases before continuing.
{"columns": ["Molecule", "Uom", "viscosity"],
 "data": [
  ["CC(=O)OCCC(C)C [3-methylbutyl ethanoate] + CCO", "mPa·s", 1.072],
  ["CCCCCC(=O)OCC [ethyl hexanoate] + CCO", "mPa·s", 1.139]
]}

List reported viscosity for each of these molecules:
1. CCCCCCCC(=O)OCC [ethyl octanoate] + CCO
2. CCCC(=O)OCCC(C)C [3-methylbutyl butanoate] + CCO
3. CCOC(=O)c1ccccc1 [ethyl benzoate] + CCO
4. CCOC(=O)Cc1ccccc1 [ethyl phenylacetate] + CCO

1: 1.306; 2: 1.201; 3: 1.388; 4: 1.447

====

- Method Summary: xn = mol fraction of the nth substance listed
- Measurement Conditions: 308.15 K; 101 kPa; Liquid; x1 = 0.3
Give measured mass density for each item. Keep answers brief.
Numbers only, in kg/m3.

{"columns": ["Compound", "Assay Readout", "Experimental Value"],
 "data": [
  ["CCCC(=O)OCCC(C)C [3-methylbutyl butanoate] + CCO", "mass density", 817.17],
  ["CCOC(=O)Cc1ccccc1 [ethyl phenylacetate] + CCO", "mass density", 908.03]
]}

Go through the list and state mass density for each entry.
1. CCCCCCCC(=O)OCC [ethyl octanoate] + CCO
2. CCCCCC(=O)OCC [ethyl hexanoate] + CCO
3. CCOC(=O)c1ccccc1 [ethyl benzoate] + CCO

1. 820.94
2. 819.38
3. 909.68

====

Please respond with reported mass density for every item in the list.
- Method Summary: xn = mol fraction of the nth substance listed
- Measurement Conditions: 308.15 K; 101 kPa; Liquid; x1 = 0.95
One number for each entry, in kg/m3.

# annotated cases, reported mass density shown
{"columns": ["Compound", "mass density (kg/m3)"],
 "data": [
  ["CCCCCCCC(=O)OCC [ethyl octanoate] + CCO", 852.26],
  ["CCCC(=O)OCCC(C)C [3-methylbutyl butanoate] + CCO", 848.22],
  ["CCCCCC(=O)OCC [ethyl hexanoate] + CCO", 855.27]
]}

For every listed record, write down its mass density.
1. CCOC(=O)c1ccccc1 [ethyl benzoate] + CCO
2. CCOC(=O)Cc1ccccc1 [ethyl phenylacetate] + CCO

1. 1026.72
2. 1012.99

====

- Method Summary: xn = mol fraction of the nth substance listed
- Measurement Conditions: 318.15 K; 101 kPa; Liquid; x1 = 0.5
Assay Readout: mass density (kg/m3)
One number for each entry, in kg/m3.

{"columns": ["Compound", "Uom", "mass density"],
 "data": [
  ["CCOC(=O)c1ccccc1 [ethyl benzoate] + CCO", "kg/m3", 949.95],
  ["CCOC(=O)Cc1ccccc1 [ethyl phenylacetate] + CCO", "kg/m3", 944.28],
  ["CCCCCCCC(=O)OCC [ethyl octanoate] + CCO", "kg/m3", 825.71],
  ["CCCC(=O)OCCC(C)C [3-methylbutyl butanoate] + CCO", "kg/m3", 821.32]
]}

Then there is this compound:
So what does the record say about mass density for CCCCCC(=O)OCC [ethyl hexanoate] + CCO ?
825.05

====

- Method Summary: xn = mol fraction of the nth substance listed
- Measurement Conditions: 288.15 K; 101 kPa; Liquid; x1 = 0.95
Please assign No whenever mass density is at or above 1000 kg/m3, and Yes whenever it is below.

Please state whether mass density is below 1000 kg/m3 for CCOC(=O)Cc1ccccc1 [ethyl phenylacetate] + CCO
No

mass density under 1000 kg/m3? Item: CCCCCC(=O)OCC [ethyl hexanoate] + CCO
Yes

# check: mass density < 1000 kg/m3 for CCOC(=O)c1ccccc1 [ethyl benzoate] + CCO
No

Item CCCCCCCC(=O)OCC [ethyl octanoate] + CCO : mass density beneath 1000 kg/m3, strictly?
Yes

Dear reviewer, please state whether CCCC(=O)OCCC(C)C [3-methylbutyl butanoate] + CCO has mass density strictly beneath 1000 kg/m3.
Yes

====

- Method Summary: xn = mol fraction of the nth substance listed
- Measurement Conditions: 288.15 K; 101 kPa; Liquid; x1 = 0.6
Where mass density equals or exceeds 900 kg/m3, the correct label is Yes; where it does not, the label is No.

Example entries begin here.
{"columns": ["Molecule", "Cat"],
 "data": [
  ["CCOC(=O)Cc1ccccc1 [ethyl phenylacetate] + CCO", "Yes"],
  ["CCOC(=O)c1ccccc1 [ethyl benzoate] + CCO", "Yes"]
]}

Record CCCCCC(=O)OCC [ethyl hexanoate] + CCO ; criterion: mass density no lower than 900 kg/m3. Met?
No

Does mass density meet or surpass 900 kg/m3 for CCCCCCCC(=O)OCC [ethyl octanoate] + CCO ?
No

Record CCCC(=O)OCCC(C)C [3-methylbutyl butanoate] + CCO ; criterion: mass density no lower than 900 kg/m3. Met?
No
